Examples of sequences with documented TLR8 100 nM (averaged NF-κB-Luciferase level relative to R848 condition, fold increase) follow.
TARGET_SYSTEM: TLR8 (Homo sapiens, UniProt Q9NR97)
Sequence (Q9NR97 27-1041): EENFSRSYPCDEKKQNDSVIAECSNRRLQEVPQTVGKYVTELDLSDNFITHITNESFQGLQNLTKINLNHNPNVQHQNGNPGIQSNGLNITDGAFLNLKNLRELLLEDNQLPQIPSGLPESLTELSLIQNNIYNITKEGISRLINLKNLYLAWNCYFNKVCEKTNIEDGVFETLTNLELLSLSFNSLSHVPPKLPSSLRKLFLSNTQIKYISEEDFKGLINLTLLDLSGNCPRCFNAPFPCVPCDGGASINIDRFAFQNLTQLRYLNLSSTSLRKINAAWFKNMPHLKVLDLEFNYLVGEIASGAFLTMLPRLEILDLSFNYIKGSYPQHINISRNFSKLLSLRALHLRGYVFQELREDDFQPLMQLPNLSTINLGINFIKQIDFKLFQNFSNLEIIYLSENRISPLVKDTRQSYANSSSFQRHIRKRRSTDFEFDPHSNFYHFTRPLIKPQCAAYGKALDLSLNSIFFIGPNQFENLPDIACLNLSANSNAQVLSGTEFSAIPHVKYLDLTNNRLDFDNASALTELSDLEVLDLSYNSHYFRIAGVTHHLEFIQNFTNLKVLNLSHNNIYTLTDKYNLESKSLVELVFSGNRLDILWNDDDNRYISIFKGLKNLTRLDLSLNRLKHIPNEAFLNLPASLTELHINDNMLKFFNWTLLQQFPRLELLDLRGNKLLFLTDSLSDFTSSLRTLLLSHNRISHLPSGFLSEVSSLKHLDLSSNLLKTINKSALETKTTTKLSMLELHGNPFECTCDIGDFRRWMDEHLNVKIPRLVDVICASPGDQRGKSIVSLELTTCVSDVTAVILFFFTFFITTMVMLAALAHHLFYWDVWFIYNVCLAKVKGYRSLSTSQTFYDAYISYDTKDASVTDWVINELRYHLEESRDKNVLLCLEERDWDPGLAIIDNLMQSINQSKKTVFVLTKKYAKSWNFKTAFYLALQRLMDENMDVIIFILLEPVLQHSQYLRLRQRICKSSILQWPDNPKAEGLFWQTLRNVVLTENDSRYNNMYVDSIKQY
EXPERIMENTAL_DETAILS: HEK-TLR8 NF-κB-luciferase reporter, R848 or Motolimod stimulation (potentiation or inhibition)
Assay type: cell-based
Set-up: expressed in transfected cells; host or cells: 293XLhTLR8 (HEK293)
TEST_CONDITIONS: ASO 100 nM; relative to R848 only
VALUE_TYPE: TLR8 100 nM (averaged NF-κB-Luciferase level relative to R848 condition, fold increase)

SEQ	NUMERIC_READOUT
CCACATCCTGTGGCTC (antisense; LNA-modified, pattern not given here) [CAMSAP1-2906 LNA V1]	0.291
GTATCGAAAGAGTCTG (antisense; LNA-modified, pattern not given here) [EGFR-3908 LNA KL]	0.637
CCAAGATCAGCAGTCT (antisense; LNA-modified, pattern not given here) [CTNN2B-2341 LNA KL]	1.015
AGGTCTTGGCTTCGTG (antisense; LNA-modified, pattern not given here) [MB21D1-524 LNA V1]	0.596
GATAGCACCTTCAGCA (antisense; LNA-modified, pattern not given here) [CTNN2B-1294 LNA KL]	0.821
GGCTGGAATCCGAGTT (antisense; LNA-modified, pattern not given here) [EGFR-4705 LNA KL]	0.562
TGGTCCACAACCCCTT (antisense; LNA-modified, pattern not given here) [MB21D1-697 LNA V1]	0.559

---

TARGET_SYSTEM: TLR8 (Homo sapiens)
EXPERIMENTAL_DETAILS: HEK-TLR8 NF-κB-luciferase reporter, R848 or Motolimod stimulation (potentiation or inhibition)
Type: cell-based
Parameters: expressed in transfected cells; host or cells: 293XLhTLR8 (HEK293)
TEST_CONDITIONS: MOE-modified ASO at 500 nM; averaged NF-κB-Luciferase relative to R848 condition (fold increase)
Examples of sequences with documented TLR8 500 nM follow.

SEQ	TLR8 500 nM
GCCGCTTTTCTGTCTGGTTC (antisense; 2'-MOE modified, pattern not given here) [CTNN2B-311 MOE]	0.369
GAGTCTCTGGAGCTTCCTCT (antisense; 2'-MOE modified, pattern not given here) [CAMSAP1-2456 MOE]	0.683
TTGGCTCGGCTTGCCTACTT (antisense; 2'-MOE modified, pattern not given here) [CAMSAP1-5594 MOE]	0.813
TTTGCACACTTCGTACCCAA (antisense; 2'-MOE modified, pattern not given here) [CAMSAP1-4916 MOE]	2.199

---

Examples of sequences with documented TLR7 500 nM follow.
TARGET_SYSTEM: human TLR7 (Homo sapiens)
Construct: HA; host or cells: 293XL-hTLR7-HA (HEK293)
Sequence (Q9NYK1 27-1049): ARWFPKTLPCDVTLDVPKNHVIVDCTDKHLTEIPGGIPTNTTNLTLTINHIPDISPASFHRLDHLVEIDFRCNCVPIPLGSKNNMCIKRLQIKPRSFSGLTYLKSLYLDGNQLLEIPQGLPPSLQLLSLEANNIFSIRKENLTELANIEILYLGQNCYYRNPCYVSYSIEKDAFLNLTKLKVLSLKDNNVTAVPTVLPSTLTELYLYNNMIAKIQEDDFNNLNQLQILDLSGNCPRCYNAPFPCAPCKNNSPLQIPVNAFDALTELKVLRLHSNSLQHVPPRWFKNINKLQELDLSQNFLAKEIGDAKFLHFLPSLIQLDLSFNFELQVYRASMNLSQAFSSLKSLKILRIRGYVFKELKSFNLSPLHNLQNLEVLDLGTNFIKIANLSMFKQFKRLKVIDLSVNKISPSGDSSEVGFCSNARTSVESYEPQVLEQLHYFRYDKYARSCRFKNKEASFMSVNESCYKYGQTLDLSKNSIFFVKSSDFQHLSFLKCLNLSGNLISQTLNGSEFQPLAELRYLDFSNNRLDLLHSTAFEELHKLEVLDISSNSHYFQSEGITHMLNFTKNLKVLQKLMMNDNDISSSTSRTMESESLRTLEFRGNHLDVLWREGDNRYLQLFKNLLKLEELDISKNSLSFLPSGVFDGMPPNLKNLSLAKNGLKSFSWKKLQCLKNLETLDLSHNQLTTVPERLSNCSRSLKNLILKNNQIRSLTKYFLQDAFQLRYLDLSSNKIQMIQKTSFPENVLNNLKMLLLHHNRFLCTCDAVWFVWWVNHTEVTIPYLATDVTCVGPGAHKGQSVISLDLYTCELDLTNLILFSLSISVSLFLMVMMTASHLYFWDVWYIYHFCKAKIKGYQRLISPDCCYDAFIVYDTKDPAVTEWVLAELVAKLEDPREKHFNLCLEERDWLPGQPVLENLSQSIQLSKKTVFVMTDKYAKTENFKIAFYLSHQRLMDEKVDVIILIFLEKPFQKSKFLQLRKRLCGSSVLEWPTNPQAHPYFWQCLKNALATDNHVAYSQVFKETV
EXPERIMENTAL_DETAILS: HEK-TLR7 NF-κB-luciferase reporter, R848 stimulation
Assay type: cell-based
TEST_CONDITIONS: MOE-modified ASO at 500 nM; averaged NF-κB-Luciferase relative to R848 condition

SEQ	TLR7 500 nM
CAGATAGCACCTTCAGCACT (antisense; 2'-MOE modified, pattern not given here) [CTNN2B-1294 MOE]	0.254
CTTACTTTCCGAGGTGTCCA (antisense; 2'-MOE modified, pattern not given here) [CAMSAP1-1739 MOE]	0.336
CAAGGCCCTTCGCACTTCTT (antisense; 2'-MOE modified, pattern not given here) [EGFR-1225 MOE]	0.336
AGTCGTAGTTGCTTCCTAAC (antisense; 2'-MOE modified, pattern not given here) [MB21D1-1181 MOE]	0.228

---

TARGET_SYSTEM: human TLR9 (Homo sapiens, UniProt Q9NR96)
Construct: HA; host or cells: 293XL-hTLR9-HA (HEK293)
Sequence (Q9NR96 26-1032): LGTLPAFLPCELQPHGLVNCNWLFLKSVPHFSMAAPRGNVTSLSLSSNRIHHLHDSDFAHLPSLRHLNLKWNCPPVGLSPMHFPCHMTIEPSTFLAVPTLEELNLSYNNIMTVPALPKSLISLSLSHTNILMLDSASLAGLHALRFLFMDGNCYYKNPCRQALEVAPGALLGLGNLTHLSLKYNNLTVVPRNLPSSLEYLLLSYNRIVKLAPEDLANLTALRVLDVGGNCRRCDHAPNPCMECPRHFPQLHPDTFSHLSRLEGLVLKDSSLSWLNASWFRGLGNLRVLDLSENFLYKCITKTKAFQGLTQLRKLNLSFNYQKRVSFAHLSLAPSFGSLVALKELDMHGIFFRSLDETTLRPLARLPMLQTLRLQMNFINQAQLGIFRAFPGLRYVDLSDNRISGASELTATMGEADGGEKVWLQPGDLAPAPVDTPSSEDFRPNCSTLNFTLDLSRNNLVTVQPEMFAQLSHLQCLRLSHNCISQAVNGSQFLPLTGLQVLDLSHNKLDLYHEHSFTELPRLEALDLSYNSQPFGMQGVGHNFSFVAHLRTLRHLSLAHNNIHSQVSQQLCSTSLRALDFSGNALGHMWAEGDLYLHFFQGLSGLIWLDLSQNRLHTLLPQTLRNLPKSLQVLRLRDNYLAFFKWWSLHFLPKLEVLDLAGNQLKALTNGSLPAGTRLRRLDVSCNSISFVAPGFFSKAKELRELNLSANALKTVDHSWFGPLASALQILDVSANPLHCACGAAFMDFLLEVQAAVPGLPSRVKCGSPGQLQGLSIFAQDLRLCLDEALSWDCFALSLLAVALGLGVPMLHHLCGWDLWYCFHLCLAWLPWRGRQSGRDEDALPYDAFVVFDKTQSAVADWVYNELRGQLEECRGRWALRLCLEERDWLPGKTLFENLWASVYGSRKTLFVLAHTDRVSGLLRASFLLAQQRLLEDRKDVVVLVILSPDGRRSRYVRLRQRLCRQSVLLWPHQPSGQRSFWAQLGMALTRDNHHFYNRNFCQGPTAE
EXPERIMENTAL_DETAILS: HEK-TLR9 NF-κB-luciferase reporter, ODN2006 stimulation
Assay type: cell-based
TEST_CONDITIONS: ASO 100 nM; relative to ODN2006 only, given as fraction
We label by threshold. Values of TLR9 100 nM (averaged NF-κB-Luciferase level relative to ODN2006 condition) strictly beneath 0.8 are true. Values of 0.8 and up are false.

SEQ	CAT
CTTGAAGCATCGTATC (antisense; LNA-modified, pattern not given here) [CTNN2B-3648 LNA KL]	false
CCACATCCTGTGGCTC (antisense; LNA-modified, pattern not given here) [CAMSAP1-2906 LNA V1]	true
CCAGCAGGTCAGCAAA (antisense; LNA-modified, pattern not given here) [HPRT LNA-388 KL]	true
GGTCATTACAATAGCT (antisense; LNA-modified, pattern not given here) [HPRT LNA-475 KL]	true
GGCACTTTGCCTCCTT (antisense; LNA-modified, pattern not given here) [EGFR-2859 LNA V1]	false
ACCACGTCTGCTCTAA (antisense; LNA-modified, pattern not given here) [CAMSAP1-1635 LNA KL]	false
TCTTGGCTTCGTGGAG (antisense; LNA-modified, pattern not given here) [MB21D1-521 LNA V1]	false
GTCCCCTGTTGACTGG (antisense; LNA-modified, pattern not given here) [HPRT LNA-489 KL]	true
GTATCGAAAGAGTCTG (antisense; LNA-modified, pattern not given here) [EGFR-3908 LNA KL]	false
TGATGGCCTCCCATCT (antisense; LNA-modified, pattern not given here) [HPRT LNA-332 V1]	true
TGTCTGGAAGCTTCCT (antisense; LNA-modified, pattern not given here) [CTNN2B-808 LNA V1]	false
CAACACTTCGTGGGGT (antisense; LNA-modified, pattern not given here) [HPRT LNA-667 V1]	true
AGGTCTTGGCTTCGTG (antisense; LNA-modified, pattern not given here) [MB21D1-524 LNA V1]	false
AGCTTCGAGGCCCCAG (antisense; LNA-modified, pattern not given here) [MB21D1-616 LNA V1]	true
GATGGCCTCCCATCTC (antisense; LNA-modified, pattern not given here) [HPRT LNA-331 V1]	false
GTCAAGGGCATATCCT (antisense; LNA-modified, pattern not given here) [HPRT LNA-732 KL]	false
GTGATGGCCTCCCATC (antisense; LNA-modified, pattern not given here) [HPRT LNA-333 V1]	false
GCCATGTTTCTTCTTG (antisense; LNA-modified, pattern not given here) [MB21D1-1248 LNA KL]	true
CCCACTTGGCAGACCA (antisense; LNA-modified, pattern not given here) [CTNN2B-1576 LNA V1]	true
TGGTGGCCACCCATCT (antisense; LNA-modified, pattern not given here) [CTNN2B-2479 LNA V1]	false
TCCGCCCAAAGGGAAC (antisense; LNA-modified, pattern not given here) [HPRT LNA-1027 KL]	false
GGCTCGGCTTGCCTAC (antisense; LNA-modified, pattern not given here) [CAMSAP1-5594 LNA V1]	true
TTCAGGCGCTGCCTTG (antisense; LNA-modified, pattern not given here) [CAMSAP1-2709 LNA V1]	false
GCCATGCTGGCTCGGA (antisense; LNA-modified, pattern not given here) [CAMSAP1-2584 LNA V1]	false
GAAAGGTTATGCAAGG (antisense; LNA-modified, pattern not given here) [CTNN2B-916 LNA KL]	true
